Target: T1, recombinant hIL-18Rα extracellular domain (human, UniProt Q13478 22-329, biotin label (selection) or fluorescent probe (single-clone FACS), sites not given)
T1 construct: extracellular domain; also called hIL-18Rα ECD; hIL-18Rα-ECD
T1 sequence (looked up): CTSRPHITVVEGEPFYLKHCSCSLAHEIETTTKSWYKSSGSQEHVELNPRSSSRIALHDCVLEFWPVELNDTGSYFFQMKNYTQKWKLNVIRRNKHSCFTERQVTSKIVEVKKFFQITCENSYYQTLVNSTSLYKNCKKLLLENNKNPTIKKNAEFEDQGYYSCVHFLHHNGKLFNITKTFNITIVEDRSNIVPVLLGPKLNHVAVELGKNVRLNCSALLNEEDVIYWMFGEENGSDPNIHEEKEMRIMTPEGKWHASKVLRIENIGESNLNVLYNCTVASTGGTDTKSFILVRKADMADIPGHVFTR
Experiment: single-clone FACS, yeast display, 10 nM labelled hIL-18Rα ECD
MEASUREMENT_NAME: % of fluorescence positive cells (%)
Please respond with the number in % and leave the unit unwritten.

Use the examples below as a reference point.
binder="SEQ ID NO 85 (ligand) YFPKLKSKLSVIRNLNDQVLFIDQGNRPLFEDMTDSDCRDNAPRTIFIISMYKWSGGRGMAVTISVKCEKISTLSCENKIISFKEMNPPDSIKDTKSDIIFFQFSVPGHDNKMQFESSSYEGYFLACEKERDLFKLILKKEDELGDRSIMFTVQNED" unit_of_measure=% measured_result=10.8
binder="SEQ ID NO 77 (ligand) YFPKLRSKLSVIRNLNDQVLFIDQGNRPLFEDMTDSDCRDNAPRTIFIISMYKHSYTRGMAVTISVKCEKISTLSCENKIISFKEMNPPDIIKDTKSDIIFFQYSVPGHDNKMQFESSSYEGYFLACEKERDLFKLILKKEDELGDRSIMFTVQNED" unit_of_measure=% measured_result=28.4

In plain terms, IL-18 variant polypeptide M32 (ligand) YFPKLGSKLSVIRNLNDQVLFIDQGNRPLFEDMTDSDCRDNAPRTIFIISMYKSSSRRGMAVTISVKCEKISTLSCENKIISFKEMNPPDNIKDTKSDIIFFQRSVPGHDNKMQFESSSYEGYFLACEKERDLFKLILKKEDELGDRSIMFTVQNED has a documented % of fluorescence positive cells of 4.21
